tested on: BT-549 breast; assay: NCI tumour cell line growth inhibition, 48 h
reported-metric: TGI (µM)
Answers are plain numbers, in µM.

- compound: "CC1(C)CC[C@]2(CO)CC[C@]3(C)C(=CC[C@@H]4[C@@]5(C)CCNCC(C)(C)[C@@H]5CC[C@]43C)[C@@H]2C1"
  units-text: "µM"
  value-observed: 18.3

List reported TGI for each of these compounds:
1. CC(=O)O[C@H]1CC[C@]2(C)C3C(=O)C[C@]4(C)[C@@H](C(C)CCC(=O)O)CC[C@@]4(C)[C@@H]3CC[C@H]2C1(C)C (some centres undefined)
2. CCC(=C(c1ccc(OCCN2CCCC2)cc1)c1ccc(OCCN2CCCC2)cc1)c1ccc(Cl)cc1

**Result**
1. 39.4
2. 1.86

----------
Would you mind telling me the reported TGI of each entry?
system: A549 NSCLC; test: NCI tumour cell line growth inhibition, 48 h
Numbers only, in µM.

Take a look at these entries with their results.
- compound: "CC(=O)OC(C)c1cc2c(s1)C(=O)c1ccsc1C2=O (stereo not given)"
  units-text: "µM"
  value-observed: 2.66
- compound: "C[C@@H](Oc1cc(-c2cnn(C3CCNCC3)c2)cnc1N)c1c(Cl)cc(F)cc1Cl"
  units-text: "µM"
  value-observed: 11.3

Then this compound:
**Query** Fill in: TGI of COc1ccc2[nH]c3c(O)c(-c4c(C)cc5c([nH]c6ccc(OC)cc65)c4O)c(C)cc3c2c1 is ___
**Result** 7.97

----------
tested on: MCF7 breast; experiment: NCI tumour cell line growth inhibition, 48 h; in the data active = GI50 below about 0.43 µM; inactive = the rest
// classify into active, inactive

- compound: "CC(=O)c1ccc(Oc2c3ccccc3nc3occc23)cc1"
  category-label: "inactive"
- compound: "CCC(=C(c1ccc(OCCN2CCCC2)cc1)c1ccc(OCCN2CCCC2)cc1)c1ccc(Cl)cc1"
  category-label: "active"
- compound: "O=C(CC1Sc2ccccc2NC1=O)NNc1ccc(F)cc1 (stereo not given)"
  category-label: "inactive"
- compound: "OCC1OC(n2cnc3c(NCc4ccco4)ncnc32)C(O)C1O (stereo not given)"
  category-label: "inactive"
- compound: "COc1ccc2[nH]c3c(O)c(-c4c(C)cc5c([nH]c6ccc(OC)cc65)c4O)c(C)cc3c2c1"
  category-label: "inactive"

**Query** Given O=C(c1ccc(Nc2nccc(NCCCCNc3ccnc4cc(Cl)ccc34)n2)cc1)N1CCCCC1 , state the outcome it received in this test.
**Result** inactive

**Query** Given CCOP(=O)(OCC)C(NC(c1ccccc1)c1ccccc1)c1ccc(C(C)C)cc1 (stereo not given) , state the outcome it received in this test.
**Result** inactive

**Query** Given CN(C)C/C=C/C(=O)Nc1cc2c(Nc3cccc(Cl)c3F)ncnc2cc1OCCOC(F)F , state the outcome it received in this test.
**Result** inactive

**Query** Given CC[Si](CC)(CC)OC1[C@@H](O[Si](CC)(CC)CC)[C@@H](CNC(=O)NC)O[C@H]1n1cnc2c(NC(=O)Nc3ccccc3)ncnc21 (stereo not given in full) , state the outcome it received in this test.
**Result** inactive

**Query** Given COc1cc(NCCC2CCCCN2)c2ncccc2c1OC (stereo not given) , state the outcome it received in this test.
**Result** inactive

----------
test system: TK-10 renal; assay: NCI tumour cell line growth inhibition, 48 h
reported-metric: GI50

Take a look at these entries with their results.
- compound: "CCOC(=O)c1cc(C(=O)c2cc(OC)c(OC)c(OC)c2)n2ccc(-c3cc[n+](CC(=O)c4cc(OC)c(OC)c(OC)c4)cc3)cc12"
  GI50: "1.79 µM"
- compound: "COc1cc(NCCC2CCCCN2)c2ncccc2c1OC (stereo unspecified)"
  GI50: "22.1 µM"
- compound: "O=C(CC1Sc2ccccc2NC1=O)NNc1ccc(F)cc1 (stereo unspecified)"
  GI50: "> 100 µM"

List reported GI50 for each of these compounds:
1. CC(=O)O[C@H]1CC[C@]2(C)C3C(=O)C[C@]4(C)[C@@H](C(C)CCC(=O)O)CC[C@@]4(C)[C@@H]3CC[C@H]2C1(C)C (stereo partly specified)
2. O=C(c1ccc(Nc2nccc(NCCCCNc3ccnc4cc(Cl)ccc34)n2)cc1)N1CCCCC1
3. CCOC(=O)c1cc2c(n1Cc1cc(OC)cc(OC)c1)-c1oncc1CC2

**Result**
21.8 µM
2.16 µM
3.58 µM

----------
system: NCI-H226 lung; experiment: NCI tumour cell line growth inhibition, 48 h
reported-metric: TGI

Take a look at these entries with their results.
- molecule: "CC(C)=CCOc1ccc(-c2coc3cc4c(c(O)c3c2=O)C=CC(C)(C)O4)cc1"
  value-observed: "> 100 µM"
- molecule: "CCOC(=O)CCSC1=CC(=O)c2nc3ccccc3c3ccnc1c23"
  value-observed: "73.8 µM"
- molecule: "CC(=O)OCC1OC(n2c(O)c(N=NC(N)=S)c3ccc([N+](=O)[O-])cc32)C(OC(C)=O)C1OC(C)=O (centres undefined)"
  value-observed: "84.7 µM"
- molecule: "COc1cccc(CCn2c(N)c(C#N)c3ccc([N+](=O)[O-])cc3c2=O)c1"
  value-observed: "> 31.6 µM"
- molecule: "C[C@@H](Oc1cc(-c2cnn(C3CCNCC3)c2)cnc1N)c1c(Cl)cc(F)cc1Cl"
  value-observed: "9.87 µM"
- molecule: "CC(=O)OCC1=CC2CCC3C(C)(CCC[C@]3(C)COC(C)=O)C23CC[C@H]1C3 (some centres undefined)"
  value-observed: "> 100 µM"

List reported TGI for each of these molecules:
1. CCOC(=O)c1cc2c(n1Cc1cc(OC)cc(OC)c1)-c1oncc1CC2
2. COc1ccc(C2=NN(C(=O)c3ccc(Cl)cc3)C(O)(c3cc(F)c(Cl)cc3Cl)C2)cc1 (centres undefined)
3. CCOC(=O)c1cc2c(n1Cc1ccccc1OC)-c1oncc1CCC2

**Result**
1: > 100 µM; 2: > 100 µM; 3: > 100 µM

----------
system: PC-3 prostate; experiment: NCI tumour cell line growth inhibition, 48 h
Would you mind telling me the reported GI50 of each entry?

- compound: "COc1cc(/C=C/c2ccnc3ccccc23)cc(OC)c1OC"
  test-target: "PC-3 prostate"
  GI50: "3.81 µM"

List reported GI50 for each of these compounds:
1. O=C(CC1Sc2ccccc2NC1=O)NNc1ccc(F)cc1 (stereo not given)
2. O=C(Nc1ccc(Cl)cc1)N1CCN(c2ccc3nncn3n2)CC1
3. CC(C)(C)OC(=O)N1Cc2cc3ccccc3nc2C1CO (stereo not given)
4. C=C1C(=O)O[C@H]2[C@H]1CC/C(COC(=O)N[C@H](Cc1c[nH]c3ccccc13)C(=O)OC)=C\CC[C@@]1(C)O[C@@H]21
5. CCOC(=O)c1ccc(NC(=O)c2cccc(NC3=C(Cl)C(=O)N(Cc4ccccc4)C3=O)c2)cc1
6. O=C(c1ccc(Nc2nccc(NCCCCNc3ccnc4cc(Cl)ccc34)n2)cc1)N1CCCCC1

**Result**
64.1 µM
34.3 µM
> 100 µM
6.49 µM
> 100 µM
0.955 µM

List reported GI50 for each of these compounds:
1. CC(=O)O[C@H]1CC[C@]2(C)C3C(=O)C[C@]4(C)[C@@H](C(C)CCC(=O)O)CC[C@@]4(C)[C@@H]3CC[C@H]2C1(C)C (stereo not given in full)
2. COc1ccc2nc3ccccc3c(NCc3ccccc3)c2c1

**Result**
["18.3 µM", "2.35 µM"]

**Query** Fill in: GI50 of O=C(CCl)Nc1ccc(Cc2ccc(NC(=O)CCl)cc2)cc1 is ___
**Result** 2.13 µM

----------
test system: COLO 205 colon; assay: NCI tumour cell line growth inhibition, 48 h
Would you mind telling me the reported GI50 of each entry?

- compound: "Cc1ccc(NC2=CC(=O)C(=O)c3ccccc32)cc1"
  GI50: "1650 nM"
- compound: "Nc1cc(N)c2nc(-c3ccccc3)c(NCc3ccc(Cl)c(Cl)c3)nc2c1"
  GI50: "16900 nM"
- compound: "OCC1OC(n2cnc3c(NCc4ccccc4O)ncnc32)C(O)C1O (centres undefined)"
  GI50: "524 nM"

**Query** Fill in: GI50 of C=C1C(O)C2CC(C)(C)C(=O)C2=C(CC(C)C)C12CC2 (centres undefined) is ___
**Result** > 100000 nM

----------
tested on: LOX IMVI melanoma; assay: NCI tumour cell line growth inhibition, 48 h
reported-metric: GI50

Take a look at these entries with their results.
- structure-notation: "O=c1[nH]c2ccccc2n1C1CCN(CCOc2ccccc2)CC1"
  test-target: "LOX IMVI melanoma"
  value-observed: "15.5 µM"
- structure-notation: "CCN(CC)CCCNc1cc(OC)c(OC)c2cccnc12"
  test-target: "LOX IMVI melanoma"
  value-observed: "2.22 µM"
- structure-notation: "COc1ccc(-c2nnc(Nc3nc(O)c(C4=c5cc(Br)ccc5=NC4=O)s3)o2)cc1"
  test-target: "LOX IMVI melanoma"
  value-observed: "19.8 µM"
- structure-notation: "O=C(CCl)Nc1ccc(Cc2ccc(NC(=O)CCl)cc2)cc1"
  test-target: "LOX IMVI melanoma"
  value-observed: "0.784 µM"
- structure-notation: "Cc1ccc(NC2=CC(=O)C(=O)c3ccccc32)cc1"
  test-target: "LOX IMVI melanoma"
  value-observed: "2.11 µM"

Then this compound:
**Query** Fill in: GI50 of CCOC(=O)c1cc2c(n1Cc1ccccc1OC)-c1oncc1CCC2 is ___
**Result** 7.64 µM
